normalized growth reference
# method-summary: chemical genetic growth profiling, strain panel (AID 1159580);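 note: tested at 20 µM; growth read once vehicle control cultures reached saturation at 30 °C; 1 = growth at the plate median or of vehicle wells; lower values mean less growth of the strain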
# reported-conditions: S. cerevisiae deletion strains, growth OD, locus YJL095W, strain BCK1, active compounds read low
Hit rate of the full screen: of about 5,500 compounds, about 2,000 (36%) were called active. About 18% were inconclusive and are not listed. The list shows a part of the results.
measured-metric: normalized growth

{"compound": "C=C1CCC2[C@](C)(CO)[C@H](O)CC[C@@]2(C)[C@@H]1C/C=C1/C(=O)OC[C@H]1O (some centres not stated)", "measured-metric": "normalized growth", "test-value": 1.05}
{"compound": "O=S(=O)(O)c1cc(N=C=S)ccc1/C=C/c1ccc(N=C=S)cc1S(=O)(=O)O", "measured-metric": "normalized growth", "test-value": 0.99}
{"compound": "CCCCCCCCCCCCCc1ccco1", "measured-metric": "normalized growth", "test-value": 0.977}
{"compound": "O=C(Oc1cccc2[nH]ccc12)c1ccc(C(F)(F)F)cc1", "measured-metric": "normalized growth", "test-value": 0.645}
{"compound": "CCOC(=O)C1C(c2c(F)cccc2Cl)C(C(=O)OCC)C(O)(C(F)(F)F)NC1(O)C(F)(F)F (configuration not stated)", "measured-metric": "normalized growth", "test-value": 0.982}
{"compound": "CCCCC/C=C/CCC(=O)N[C@H]1[C@H](Oc2c3cc4cc2Oc2ccc(cc2Cl)[C@@H](O[C@@H]2O[C@H](CO)[C@@H](O)[C@H](O)[C@H]2NC(C)=O)[C@@H]2NC(=O)[C@H](NC(=O)[C@@H]4NC(=O)[C@H]4NC(=O)C(Cc5ccc(c(Cl)c5)O3)NC(=O)[C@H](N)c3ccc(O)c(c3)Oc3cc(O)cc4c3)c3ccc(O)c(c3)-c3c(OC4O[C@H](CO)[C@@H](O)[C@H](O)[C@@H]4O)cc(O)cc3[C@@H](C(=O)O)NC2=O)O[C@H](CO)[C@@H](O)[C@@H]1O (some centres not stated)", "measured-metric": "normalized growth", "test-value": 0.956}
{"compound": "C=CC[C@]1(O)CCC2C3CCC4=CC(=O)CCC4=C3C=C[C@@]21C (some centres not stated)", "measured-metric": "normalized growth", "test-value": 0.909}
{"compound": "CO/N=C1/CN(c2nc3c(cc2F)c(=O)c(C(=O)O)cn3C2CC2)CC1CN (configuration not stated)", "measured-metric": "normalized growth", "test-value": 0.98}
{"compound": "OC[C@@H](O)[C@@H](O)[C@H](O)[C@@H](O)CO", "measured-metric": "normalized growth", "test-value": 0.992}
{"compound": "CCOC(=O)n1ccn(C)c1=S", "measured-metric": "normalized growth", "test-value": 1.01}
{"compound": "C=CCCCCCCCCCCCc1ccco1", "measured-metric": "normalized growth", "test-value": 0.877}
{"compound": "CSc1nc2cc(Oc3cccc(Cl)c3Cl)c(Cl)cc2[nH]1", "measured-metric": "normalized growth", "test-value": 0.114}
{"compound": "COc1cc(OC)c2c(c1)O[C@H](c1cc(OC)c(OC)c(OC)c1)[C@H](OC(=O)c1cc(OC)c(OC)c(OC)c1)C2", "measured-metric": "normalized growth", "test-value": 1.01}
{"compound": "CC1(C)CCC[C@@]2(C)C1[C@@H](O)C[C@]1(C)C2CC[C@@H]2[C@@]3(C)CC[C@H](C(C)(C)O)[C@@H]3CC[C@@]21C (some centres not stated)", "measured-metric": "normalized growth", "test-value": 1.02}
{"compound": "COC(=O)[C@@H]1OC(=O)C2OC23[C@@]1(C)CCC1[C@]2(C)C(C[C@H](O)[C@]13C)C(C)(C)[C@H](OC(C)=O)C[C@@H]2OC(C)=O (some centres not stated)", "measured-metric": "normalized growth", "test-value": 1}
{"compound": "Cc1c(C(=O)Sc2ccc(F)cc2F)sc2nc(C(F)(F)F)nn12", "measured-metric": "normalized growth", "test-value": 0.0913}
{"compound": "O=C(c1ccc(OCCN2CCCCC2)cc1)c1c(-c2ccc(O)cc2)sc2cc(O)ccc12", "measured-metric": "normalized growth", "test-value": 1}

----------
# method-summary: chemical genetic growth profiling, strain panel (AID 1159580);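 note: tested at 20 µM; growth read once vehicle control cultures reached saturation at 30 °C; 1 = growth at the plate median or of vehicle wells; lower values mean less growth of the strain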
# reported-conditions: S. cerevisiae deletion strains, growth OD, locus YDR195W, strain ref2
Screen size: about 5,500 compounds; about 2,000 (36%) were called active. Another 18% or so got no clear call; they are omitted. This is one part of the list.
measured-metric: normalized growth

{"compound": "O=S(=O)(O)c1cc(N=C=S)ccc1/C=C/c1ccc(N=C=S)cc1S(=O)(=O)O", "test-value": "1.03 (inactive)"}
{"compound": "CC(=O)S[C@@H]1CC2=CC(=O)CC[C@]2(C)[C@H]2CC[C@@]3(C)[C@@H](CC[C@@]34CCC(=O)O4)C12 (stereo not given in full)", "test-value": "1.05 (inactive)"}
{"compound": "C[C@]12CCC(=O)C=C1C=CC1C2CC[C@@]2(C)C1CC[C@@]2(O)CCC(=O)O (stereo not given in full)", "test-value": "1.02 (inactive)"}
{"compound": "C[C@]12CCC(=O)C=C1C=CC1C2CC[C@@]2(C)C1CC[C@@]21CCC(=O)O1 (stereo not given in full)", "test-value": "1.12 (inactive)"}
{"compound": "NS(=O)(=O)c1cc2c(cc1Cl)NC=NS2(=O)=O", "test-value": "0.93 (inactive)"}

----------
# method-summary: chemical genetic growth profiling, strain panel (AID 1159580);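 note: tested at 20 µM; growth read once vehicle control cultures reached saturation at 30 °C; 1 = growth at the plate median or of vehicle wells; lower values mean less growth of the strain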
# reported-conditions: S. cerevisiae deletion strains, growth OD, locus YLR370C, strain arc18
Out of some 5,500 compounds screened, about 2,000 (36%) were called active. Inconclusive results (about 18%) are left out. No stated cut-off is given here; in the data, active means normalized growth mostly below about 0.91 (no sharp cut-off); inconclusive means no clear call, values can overlap the other calls; inactive means mostly above about 0.92. This is one part of the list.
Outcomes: T (active), F (inactive)

{"compound": "NS(=O)(=O)c1cc2c(cc1Cl)NC=NS2(=O)=O", "group": "F"}
{"compound": "O=c1cccc2ccc(O)c(O)c2c1O", "group": "T"}
{"compound": "CCn1cc(C(=O)O)c(=O)c2cc(F)c(N3CCNC(C)C3)c(F)c21 (configuration not stated)", "group": "F"}
{"compound": "CC[C@@H](C(=O)C(C)[C@@H](O)[C@H](C)CCc1ccc(C)c(O)c1C(=O)O)C1OC(CC)(C2CC[C@](O)(CC)[C@H](C)O2)C[C@@H]1C (some centres not stated)", "group": "F"}
{"compound": "C=C[C@@](C)(O)CCC1C(=C)CCC2[C@@](C)(CO)CCC[C@]12C (some centres not stated)", "group": "F"}
{"compound": "O=C(O)/C=C/c1ccc(O)c(O)c1", "group": "F"}
{"compound": "COc1c(N2CCNC(C)C2)c(F)cc2c(=O)c(C(=O)O)cn(C3CC3)c12 (configuration not stated)", "group": "F"}
{"compound": "COc1ccc(C(CN(C)C)C2(O)CCCCC2)cc1 (configuration not stated)", "group": "F"}
{"compound": "CCN1CCCC(OC(=O)C(c2ccccc2)c2ccccc2)C1 (configuration not stated)", "group": "F"}
{"compound": "OCC(O)CN1CCN(c2ccccc2)CC1 (configuration not stated)", "group": "F"}
{"compound": "CN1CC(=O)N=C1N", "group": "F"}
{"compound": "CN(C)CCOC(c1ccc(Cl)cc1)c1ccccn1 (configuration not stated)", "group": "F"}
{"compound": "CC[C@@H]1C=C/C=C/C[C@H](C)[C@@H](O)[C@](C)(O)C(=O)[C@H](C)[C@@H](O)[C@H](C)C(=O)[C@H](C)[C@@H](O)[C@H](C)/C=C/C(=O)O[C@H]2[C@@H](C)[C@@H](CC1)O[C@@]1(CC[C@@H](C)[C@@H](C[C@H](C)O)O1)[C@@H]2C", "group": "F"}
{"compound": "CC1COc2c(N3CCN(C)CC3)c(F)cc3c(=O)c(C(=O)O)cn1c23 (configuration not stated)", "group": "F"}
{"compound": "COc1ccc(C2CNC(=O)C2)cc1OC1CCCC1 (configuration not stated)", "group": "F"}
{"compound": "COc1ccc(C(c2ccc(OC)cc2)C(Cl)(Cl)Cl)cc1", "group": "F"}
{"compound": "CCN(CC)Cc1ccc(Nc2ccnc3cc(Cl)ccc23)cc1O", "group": "F"}
{"compound": "CCn1cc(C(=O)O)c(=O)c2cc(F)c(N3CCNCC3)nc21", "group": "F"}
{"compound": "CCN(CC)C(=O)N1CCN(C)CC1", "group": "F"}
{"compound": "O=C(/C=C/c1ccc(O)c(O)c1)OCCc1ccccc1", "group": "F"}
{"compound": "Cc1ccc(S(=O)(=O)NC(=O)NN2CCCCCC2)cc1", "group": "F"}
{"compound": "CN(C)CCN(Cc1ccccc1)c1ccccn1", "group": "F"}

Origin of the recorded values: PubChem BioAssay AID1159580
